# TESTED ON: CRF receptor (Rattus norvegicus)
# Construct: 100 μl of membrane suspension as prepared above to give a total reaction volume of 300 μl; from tissue; host or cells: rat cerebral cortex membrane homogenate
# PROTOCOL SUMMARY: In vitro CRF receptor binding assay (competition with [125I] ovine CRF, rat cortex membranes)
# SETTINGS: read-out: Inhibition Ki
pKi: −log10 of the molar value.
Kindly state pKi for each of the entries shown.

pKi lookup needed for CCN(c1nc(C)cc(N2CCCC2)n1)c1ccc(C(C)C)cc1Br [compound 192] , thanks. > 6.30

Continue with CCN(c1nc(C)cc(C(=O)N2CCOCC2)n1)c1ccc(C(C)C)cc1Br [compound 58] > 6.30

Continue with CCN(c1nc(C)nc(N2CCSC2)n1)c1ccc(C(C)C)cc1Br [compound 241] > 6.30

Continue with CCN(c1nc(C)cc(OCc2ccccc2)n1)c1ccc(C(C)C)cc1Br [compound 149] > 6.30

Continue with CCN(c1nc(C)cc(C(=O)NCc2ccco2)n1)c1ccc(C(C)C)cc1Br [compound 270] 5.00 to 5.70

----------
Structures can show the parent of a compound that is named as a salt.
MEASURE: melting point

melting point lookup needed for Cc1cc(C)nc(N2CCCSc3cc(C(C)C)ccc32)n1 (as salt: hydrochloride) , thanks. 157 to 159 °C

Continue with CCN(c1nc(C)cc(C(=O)c2ccc(OC)cc2)n1)c1ccc(C(C)C)cc1Br 104 to 106 °C

Continue with CCc1cc(N2CCCCC2)nc(N(C)c2ccc(C(C)C)cc2Br)n1 211 to 212 °C

Continue with CCN(c1nc(C)cc(C(=O)N(C)C)n1)c1ccc(C(C)C)cc1Br 80 to 82 °C

Continue with COc1ccc(Nc2nc(C)cc(C)n2)c(Br)c1 118 to 119 °C

----------
# TESTED ON: CRF receptor (Rattus norvegicus, UniProt P35353)
# Construct: 100 μl of membrane suspension as prepared above to give a total reaction volume of 300 μl; from tissue; host or cells: rat cerebral cortex membrane homogenate
# Sequence (P35353 24-415): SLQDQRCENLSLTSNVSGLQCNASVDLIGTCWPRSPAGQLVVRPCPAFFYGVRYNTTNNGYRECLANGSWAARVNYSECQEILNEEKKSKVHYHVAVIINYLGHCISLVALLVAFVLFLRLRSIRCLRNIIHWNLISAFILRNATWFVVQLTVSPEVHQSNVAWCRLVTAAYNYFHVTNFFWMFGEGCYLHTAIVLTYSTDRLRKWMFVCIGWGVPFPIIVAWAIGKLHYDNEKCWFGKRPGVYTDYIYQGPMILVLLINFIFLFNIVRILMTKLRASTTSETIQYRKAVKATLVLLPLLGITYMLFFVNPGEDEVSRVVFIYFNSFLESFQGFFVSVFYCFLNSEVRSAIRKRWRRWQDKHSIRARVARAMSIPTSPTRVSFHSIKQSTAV
# PROTOCOL SUMMARY: In vitro CRF receptor binding assay (competition with [125I] ovine CRF, rat cortex membranes)
# SETTINGS: read-out: Inhibition Ki
Kindly state Ki for each of the entries shown.

Ki lookup needed for C=CCOC1CCN(c2cc(C)nc(N(CC)c3ccc(C(C)C)cc3Br)n2)CC1 [compound 37] , thanks. < 0.5 µM

Continue with CCN(c1nc(C)cc(C(=O)N2CCN(c3ccccn3)CC2)n1)c1ccc(C(C)C)cc1Br [compound 274] 2 to 10 µM

Continue with CCN(c1nc(C)cc(C)n1)c1ccc(C(C)C)cc1SC [compound 168] < 0.5 µM

Continue with COc1cc(Br)c(Nc2nc(C)cc(C)n2)c(OC)c1 [compound 203] 0.501 to 2 µM

Continue with CCN(c1nc(C)cc([S+](C)[O-])n1)c1ccc(C(C)C)cc1Br (centres unmarked) [compound 160] < 0.5 µM

----------
# TESTED ON: CRF receptor (Rattus norvegicus, UniProt P35353)
# Construct: 100 μl of membrane suspension as prepared above to give a total reaction volume of 300 μl; from tissue; host or cells: rat cerebral cortex membrane homogenate
# PROTOCOL SUMMARY: In vitro CRF receptor binding assay (competition with [125I] ovine CRF, rat cortex membranes)
# SETTINGS: read-out: Inhibition Ki
pKi: −log10 of the molar value.
Kindly state pKi for each of the entries shown.

Please provide the recorded pKi for CCN(c1nc(C)cc(COc2ccccn2)n1)c1ccc(C(C)C)cc1Br , tested on CRF receptor (Rattus norvegicus, UniProt P35353). 5.70 to 6.30

Continue with CCN(c1nc(C)cc(C(O)c2ccco2)n1)c1ccc(C(C)C)cc1Br (stereo not drawn) > 6.30

Continue with CCN(c1nc(C)cc(OCCN(C)C)n1)c1ccc(C(C)C)cc1Br > 6.30

Continue with CCN(c1nc(C)cc(CN(C)Cc2ccco2)n1)c1ccc(C(C)C)cc1Br > 6.30

Continue with CCN(c1nc(C)cc(C)n1)c1c(Cl)cc(OC)cc1OC > 6.30

Continue with CCN(c1nc(C)cc(C=O)n1)c1ccc(C(C)C)cc1Br 5.70 to 6.30

Continue with COc1cc(OC)c(N(C)c2nc(C)cc(C)n2)c(OC)c1 5.70 to 6.30

Continue with CCN(c1nc(C)cc(C)n1)c1ccc(C(C)=O)cc1SC > 6.30

Continue with CCN(c1nc(C)cc(C)n1)c1ccc(OC(C)C)cc1Br > 6.30

All values here come from patent US6342503B1.
